Hello, the source for this data is paper PMC5540273, in case you need it.

Test system: MST1R
run.parameters: concentration: 1 μM, replicates: in singlicate; n = 1;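 note: KINOMEscan kinase panel screen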
With a cut-off of 30%, any %Inh strictly below it is called yes; any %Inh meeting it or above is called no.

Record excerpt, results attached:
Cc1ccc(O)cc1Nc1ccnc2cc(-c3ccc(CN4CCCCC4)o3)ccc12 [GW557777] : yes
COc1ccc(C)c(Nc2ccnc(Nc3ccc(-c4cnc[nH]4)cc3)n2)c1.Cl [GW784041] : yes
CSc1ccc(NC2=C(c3ccc(Cl)cc3)C(=O)NC2=O)cc1 [SB-317658] : no
COc1cccc(-c2nc(-c3ccccc3)[nH]c2-c2ccncc2)c1 [SB-610250] : yes

## Input Report whether reported %Inh is lower than 30% (strictly) for Fc1cc(Cl)ccc1Nc1ccnc2cc(-c3ccc(CN4CCSCC4)o3)ccc12 [GW560106]
## Output no

## Input Report whether reported %Inh is lower than 30% (strictly) for CC(C)NCC(Cc1ccccc1)NC(=O)c1cc(Br)c(-c2ccnc3[nH]ccc23)s1.Cl.Cl (centres unmarked) [GSK1383281]
## Output no

## Input Report whether reported %Inh is lower than 30% (strictly) for Cl.Cl.NCC(NC(=O)c1cc(-c2cccnc2)c(-c2ccnc3[nH]ccc23)s1)c1ccccc1 (centres unmarked) [GSK1323434]
## Output no

* * *

System: IKK-beta
Construct: gene IKBKB
run.parameters: concentration: 1 μM, replicates: in singlicate; n = 1
With a cut-off of 20%, any %Inh strictly below it is called criterion met; any %Inh meeting it or above is called criterion not met.

Cc1cccc(Nc2nc(NCCN)ncc2C(N)=O)c1 : criterion met
COC(=O)Nc1nc2cc(Oc3ccc(NC(=O)Nc4cccc(SC)c4)cc3)ccc2[nH]1.Cl : criterion met
N#Cc1cnc2cc(-c3cnc(CNCCN4CCOCC4)s3)ccc2c1Nc1ccc(Oc2ccccc2)cc1 : criterion not met
CNc1nccc(-c2ccc3c(N)n[nH]c3c2)n1 : criterion not met
O=C(Nc1n[nH]c2nc(-c3cccc(O)c3)ccc12)C1CC1 : criterion met

## Input Report whether reported %Inh is lower than 20% (strictly) for COc1cc(Nc2nccc(N3CCC(NC(=O)Nc4ccc5c(c4)OCO5)C3)n2)cc(OC)c1OC (centres unmarked)
## Output criterion met

## Input Report whether reported %Inh is lower than 20% (strictly) for `COc1cccc(C2=C(Nc3cccc(O)c3)C(=O)NC2=O)c1`
## Output criterion met

## Input Report whether reported %Inh is lower than 20% (strictly) for NCCC(NC(=O)c1cc(Br)c(-c2ccnc3[nH]ccc23)s1)c1ccccc1.O=C(O)C(F)(F)F.O=C(O)C(F)(F)F (centres unmarked)
## Output criterion not met

* * *

For each entry below, report its %Inh value.
Tested on: AURKB
run.parameters: concentration: 1 μM, replicates: in singlicate; n = 1
Returns: string containing the numeric result and its unit.

COc1cccc(C2=C(Nc3cccc(O)c3)C(=O)NC2=O)c1 [SB-390771] : 24%

Consider the following items and state reported %Inh for each.
1. CN(c1ccc(NC(=O)Nc2cccc(Cl)c2)cc1)c1ccnc(N)n1.Cl [GW830707]
2. Cc1cc(-c2c(-c3ccc(F)cc3)ncn2CCCN2CCOCC2)nc(N)n1 [SB-222517]
3. Nc1ncnc2scc(-c3ccc(NC(=O)Cc4cc(F)ccc4F)cc3)c12.O=C(O)C(F)(F)F [SB-731254-M]
4. CC(C)c1nc(-c2cccc(NS(=O)(=O)c3c(F)cccc3F)c2)c(-c2ccnc(Nc3ccc(N4CCOCC4)nc3)n2)s1.Cl [GSK1723980]

## Output
68%
39%
98.6%
42%

Consider the following items and state reported %Inh for each.
1. Cc1ccc(O)cc1Nc1ccnc2cc(-c3ccc(CN4CCCCC4)o3)ccc12 [GW557777]
2. Nc1ncc(-c2ccc3nccc(-c4ccncc4)c3c2)cc1S(=O)(=O)N1CCCCC1 [GSK1693850]
3. CC(C)NCC(Cc1ccccc1)NC(=O)c1cc(Br)c(-c2ccnc3[nH]ccc23)s1.Cl.Cl (centres unmarked) [GSK1383281]

## Output
["0%", "31%", "93.8%"]
